Target: human α1D adrenergic receptor (Homo sapiens, UniProt P25100)
Construct: expressed in transfected cells
Sequence (P25100 whole entry): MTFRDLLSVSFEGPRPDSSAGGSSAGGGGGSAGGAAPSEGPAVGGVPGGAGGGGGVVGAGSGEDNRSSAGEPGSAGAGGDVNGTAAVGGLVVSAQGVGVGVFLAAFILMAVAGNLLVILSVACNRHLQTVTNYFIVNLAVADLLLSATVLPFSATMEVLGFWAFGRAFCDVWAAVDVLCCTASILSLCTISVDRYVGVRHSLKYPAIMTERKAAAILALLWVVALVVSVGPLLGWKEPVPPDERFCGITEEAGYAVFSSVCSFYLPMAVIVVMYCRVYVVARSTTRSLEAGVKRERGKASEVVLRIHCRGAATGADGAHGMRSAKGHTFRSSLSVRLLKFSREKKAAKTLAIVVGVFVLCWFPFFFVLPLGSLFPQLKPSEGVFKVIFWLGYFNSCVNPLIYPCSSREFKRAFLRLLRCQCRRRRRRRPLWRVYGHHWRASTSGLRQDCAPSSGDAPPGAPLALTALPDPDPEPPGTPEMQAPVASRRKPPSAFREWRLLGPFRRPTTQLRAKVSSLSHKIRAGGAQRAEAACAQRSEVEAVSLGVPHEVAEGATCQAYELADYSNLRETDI
Assay: Radioligand binding, α1D adrenergic receptor
Conditions: Table 10; Ki hα1D divided by Ki hGAL3
measure: selectivity ratio hα1D

Illustrative cases are given below, each with its answer.
| compound | measure | obs value |
| --- | --- | --- |
| O=C1C(=Nc2ccc(Cl)cc2)c2ccccc2N1c1ccccc1 [Example 97] | selectivity ratio hα1D | >100 |
| O=C1C(=Nc2cccc(Cl)c2)c2ccccc2N1c1ccccc1 [Example 94] | selectivity ratio hα1D | >30 |
| O=C1C(=Nc2cccc(C(F)(F)F)c2)c2ccccc2N1c1ccccc1 [Example 92] | selectivity ratio hα1D | >100 |

Ask: Give its selectivity ratio hα1D value. Item: O=C1C(=Nc2ccc(Br)cc2)c2ccccc2N1c1ccccc1 [Example 98]
Result: >30

Ask: Please give the measured selectivity ratio hα1D for this compound: CN(C)c1cc(Nc2ccc(Cl)c(Cl)c2)nc(Nc2ccccc2)n1 [Example 60]
Result: >30

Ask: Which value of selectivity ratio hα1D has been reported for O=C1C(=Nc2ccc(C(F)(F)F)cc2)c2ccccc2N1c1ccccc1 [Example 95] in the records?
Result: >100

Ask: Query (compound): Cc1ccc(Nc2cc(N3CCCCC3)nc(N3CCN(c4ncccc4C(F)(F)F)CC3)n2)cc1 [Example 34] ; field requested: selectivity ratio hα1D
Result: >30
